system_under_test: Genome polyprotein (Hepatitis C virus genotype 1b (isolate BK) (HCV), UniProt P26663)
Sequence (P26663 2420-3010 limits assumed): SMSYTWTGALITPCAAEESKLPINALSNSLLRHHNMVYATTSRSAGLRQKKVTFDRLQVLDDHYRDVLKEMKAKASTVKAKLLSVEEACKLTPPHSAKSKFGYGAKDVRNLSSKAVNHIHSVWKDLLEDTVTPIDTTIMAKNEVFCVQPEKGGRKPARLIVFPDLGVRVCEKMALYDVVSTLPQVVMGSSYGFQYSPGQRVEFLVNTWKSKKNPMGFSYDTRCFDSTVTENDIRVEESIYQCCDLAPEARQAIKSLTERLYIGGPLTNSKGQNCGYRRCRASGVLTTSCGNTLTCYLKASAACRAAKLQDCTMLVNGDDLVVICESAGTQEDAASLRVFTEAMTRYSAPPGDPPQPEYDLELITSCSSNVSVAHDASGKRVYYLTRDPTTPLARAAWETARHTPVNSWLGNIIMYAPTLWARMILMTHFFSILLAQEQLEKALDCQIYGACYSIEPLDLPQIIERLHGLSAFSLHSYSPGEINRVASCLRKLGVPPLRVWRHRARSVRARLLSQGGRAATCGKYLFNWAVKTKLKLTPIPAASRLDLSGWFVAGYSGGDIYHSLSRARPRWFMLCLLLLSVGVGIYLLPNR
assay_method_text: Inhibition Assay: To measure inhibition of the enzymatic activity of the HCV NS5B RNA-dependent RNA polymerase by the nucleoside triphosphate compounds of the present invention, a radiolabeled nucleotide incorporation assay was used. This assay is a modified version of the assay described in International Publication No. WO2002/057287. Briefly, 50 uL reactions containing 20 mM HEPES (pH 7.3); 7.5 mM DTT; 20 units/ml RNasIN; 1 uM each of ATP, GTP, UTP and CTP; 20 uCi/mL [33P]-CTP; 10 mM MgCl; 60 mM NaCl; 100 ug/ml BSA; 0.021 uM DCoH heteropolymer RNA template; and 5 nM NS5B (1b-BKΔ55) enzyme were incubated at room temperature for 1 hour. The assay was then terminated by the addition of 500 mM EDTA (50 uL). The reaction mixture was transferred to a Millipore DE81 filter plate and the incorporation of labeled CTP is determined using Packard TopCount. Compound IC50 values can then be calculated from experiments with 10 serial 3-fold dilutions of the inhibitor in duplicate.
quantity_name: pIC50
Would you please state pIC50, meaning minus log10 of the concentration in mol/L, as a bare number?

Kindly note the recorded pIC50 for CO[C@]1(c2cnc3c(N)ncnn23)O[C@@H](COP(=O)(O)OP(=O)(O)OP(=O)(O)O)[C@H](O)C1(C)C#N (stereo partly drawn) , which is 5.42

Kindly note the recorded pIC50 for C[C@]1(C#N)[C@H](O)[C@H](COP(=O)(O)OP(=O)(O)OP(=O)(O)O)O[C@]1(C#N)c1ccc2c(N)ncnn12 , which is 5.92

Hello, the source for this data is ChEMBL document CHEMBL3886494, in case you need it.
